Hey, just so you know, these numbers are from ChEMBL document CHEMBL1145090.

Record set of IC50 for target or system UniProtKB Q99523.
Sequence (Q99523 whole entry): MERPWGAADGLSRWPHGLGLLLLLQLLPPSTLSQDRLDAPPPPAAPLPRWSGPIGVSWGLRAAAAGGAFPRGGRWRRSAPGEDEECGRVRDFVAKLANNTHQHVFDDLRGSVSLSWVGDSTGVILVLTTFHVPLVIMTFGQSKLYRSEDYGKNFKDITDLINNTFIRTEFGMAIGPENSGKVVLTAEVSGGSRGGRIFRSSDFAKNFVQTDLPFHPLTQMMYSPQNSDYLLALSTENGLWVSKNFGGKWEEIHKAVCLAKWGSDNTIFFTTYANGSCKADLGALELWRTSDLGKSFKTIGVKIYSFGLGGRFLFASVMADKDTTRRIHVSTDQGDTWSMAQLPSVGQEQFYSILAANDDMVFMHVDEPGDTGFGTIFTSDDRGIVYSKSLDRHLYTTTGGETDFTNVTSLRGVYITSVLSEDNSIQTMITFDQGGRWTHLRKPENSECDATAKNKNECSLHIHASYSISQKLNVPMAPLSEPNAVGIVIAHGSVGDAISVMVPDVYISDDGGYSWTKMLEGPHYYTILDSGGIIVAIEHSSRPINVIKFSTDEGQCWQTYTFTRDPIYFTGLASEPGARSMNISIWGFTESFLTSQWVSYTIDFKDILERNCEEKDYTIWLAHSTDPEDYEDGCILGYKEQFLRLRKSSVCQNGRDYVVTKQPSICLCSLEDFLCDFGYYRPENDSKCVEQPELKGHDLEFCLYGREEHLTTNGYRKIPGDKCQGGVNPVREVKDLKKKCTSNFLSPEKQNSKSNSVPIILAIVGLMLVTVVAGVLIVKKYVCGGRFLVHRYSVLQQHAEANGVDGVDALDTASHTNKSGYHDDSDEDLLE
Numbered stars: 1 amine (or outer) side, 2 acyl side, 3 side chain; on linkers, the order of the positions; unused ones are H or OH. Square brackets hold non-standard residues; d marks the D form. Peptide text beside a SMILES is read from it. X7 = CCNC(=N)NCCC[C@H](N)C(=O)/N=C(/N)NCCC[C@H](N[*:1])C(=O)[*:2]; Tle = CC(C)(C)[C@H](N)C(=O)O; hLys = NCCCCC[C@H](N)C(=O)O
attribute.measured: IC50 (nM)

[P] CC[C@H](C)[C@H](NC(=O)[C@H](Cc1ccc(O)cc1)NC(=O)[C@@H]1CCCN1C(=O)[C@@H](N)CCC/N=C(/N)NC(=O)[C@@H](N)CCCCCN)C(=O)N[C@@H](CC(C)C)C(=O)O
[Q] CCNC(=N)NCCC[C@H](N)C(=O)/N=C(/N)NCCC[C@H](N)C(=O)N1CCC[C@H]1C(=O)N[C@@H](Cc1ccc(O)cc1)C(=O)N[C@H](C(=O)N[C@@H](CC(C)C)C(=O)O)[C@@H](C)CC (H-[X7]PYIL-OH)
Given the two records P and Q , choose the one whose IC50 value is lower. Identify your selection by its label.
Q

[a] CC[C@H](C)[C@H](NC(=O)[C@H](Cc1ccc(O)cc1)NC(=O)[C@@H]1CCCN1C(=O)[C@@H](N)CCCNC(=N)NC(=O)[C@@H](N)CCCCC[N+](C)(C)C)C(=O)N[C@@H](CC(C)C)C(=O)O
[b] CC(C)C[C@H](NC(=O)[C@@H](NC(=O)[C@H](Cc1ccc(O)cc1)NC(=O)[C@@H]1CCCN1C(=O)[C@@H](N)CCCN=C(N)NC(=O)[C@@H](N)CCCCCN)C(C)(C)C)C(=O)O (H-R(hLys)PY[Tle]L-OH)
Please choose the item with the lower IC50 value from this pair: a and b Selection: enter the item's label.
a
(a: 550 nM, b: 4000 nM)

[A] CC[C@H](C)[C@H](NC(=O)[C@H](Cc1ccc(O)cc1)NC(=O)[C@@H]1CCCN1C(=O)[C@@H](N)CCC/N=C(/N)NC(=O)[C@@H](N)CCCCCNC)C(=O)N[C@@H](CC(C)C)C(=O)O
[B] CC[C@H](C)[C@H](NC(=O)[C@H](Cc1ccc(O)cc1)NC(=O)[C@@H]1CCCN1C(=O)[C@@H](N)CCC/N=C(/N)NC(=O)[C@@H](N)CCCCN(C)C)C(=O)N[C@@H](CC(C)C)C(=O)O
// compare: A vs B , metric IC50, want the smaller Let me know the label of the one you choose.
A
